test system: HEK-293T; assay: Multiplex assay against HEK293T; format: toxicity, cell-based; conditions: human, 12 h, 10 µM, compound concentration 10 uM, replicate 1;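 on Population Tubulin-Different-Phenotype (%): share of the cells with healthy nuclei that show this phenotype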
Listed next: entries and their corresponding Population Tubulin-Different-Phenotype (%).
Value kind: Population Tubulin-Different-Phenotype (%)

{"Compound": "Cl.Cl.Nc1ncnc2c1c(-c1cccc(OCc3ccccc3)c1)cn2[C@H]1C[C@@H](CN2CCC2)C1", "Measured value": 84}
{"Compound": "CC(C)N1CCC(C)(C)c2cc(C#Cc3ccc(C(=O)O)cc3)ccc21", "Measured value": 23}
{"Compound": "N#Cc1cnc(Nc2cc(NC[C@H]3CNCCO3)c(C(F)(F)F)cn2)cn1", "Measured value": 5}
{"Compound": "Nc1nc2c(c(N3CCNCC3)n1)CCC1=C2[C@@H]2CCCC[C@@H]2O1", "Measured value": 98}
{"Compound": "Cc1nc(Cc2cccc(C(F)(F)F)c2)sc1-c1ccc(C(N)=O)nc1 [TP-024n]", "Measured value": 59}
{"Compound": "CCCn1c(=O)c2[nH]c(C34CC5CC(CC3C5)C4)nc2n(CCC)c1=O", "Measured value": 80}
{"Compound": "CNc1oc(-c2cccc3ccccc23)nc1C#N", "Measured value": 0}
{"Compound": "Nc1ccc(C(=O)Nc2cccc(-c3nc(N4CCOCC4)c4oc5ncccc5c4n3)c2)cn1", "Measured value": 76}
{"Compound": "Cc1cn(-c2cc(NC(=O)c3ccc4c(c3)CN(c3cncnc3)C[C@@H]4C)cc(C(F)(F)F)c2)cn1", "Measured value": 37}
{"Compound": "CN(C)CCOc1ccc(-c2nc(-c3ccncc3)c(-c3ccc4c(c3)CC/C4=N\\O)[nH]2)cc1", "Measured value": 5}
{"Compound": "CCn1c(-c2nonc2N)nc2cnc(Oc3cccc(NC(=O)c4ccc(OCCN5CCOCC5)cc4)c3)cc21 [GSK-269962A]", "Measured value": 100}
{"Compound": "O=C(O)c1ccc2cc(-c3ccc(O)c(C45CC6CC(CC(C6)C4)C5)c3)ccc2c1", "Measured value": 14}
{"Compound": "CNC(=O)c1cc(Oc2ccc(NC(=O)Nc3cc(C(C)(C)C)nn3-c3ccc4ncccc4c3)c(F)c2)ccn1", "Measured value": 88}
{"Compound": "CC(=O)c1cc(-c2cc(C(=O)NC3CC3)ccc2C)c2ncccn12", "Measured value": 39}
{"Compound": "c1ccc2oc(-c3csc(C4CCN(Cc5nc6ncccc6[nH]5)CC4)n3)cc2c1", "Measured value": 4}
{"Compound": "COc1cc2c(NC3CCN(C(C)C)CC3)nc(N3CCC(F)(F)CC3)nc2cc1OCCCN1CCCC1", "Measured value": 98}
{"Compound": "Cc1cc2c(cc1N1C(=O)c3cccc4c(CCCO)ccc(c34)C1=O)n(C)c(=O)n2C", "Measured value": 94}
{"Compound": "CCOc1cc(N2CCC(O)CC2)ccc1Nc1ncc2c(n1)N(C1CCCC1)CCC(=O)N2C", "Measured value": 4}

====

Listed next: entries and their corresponding Population Tubulin-Different-Phenotype (%).
tested on: U2OS; assay: Multiplex assay against U2OS; assay type: toxicity, cell-based; conditions: human, 48 h, 10 µM, compound concentration 10 uM, replicate 1
Value kind: Population Tubulin-Different-Phenotype (%)

{"Compound": "CNc1oc(-c2cccc3ccccc23)nc1C#N", "System under test": "U2OS", "Measured value": 17}
{"Compound": "Cc1nc(Cc2cccc(C(F)(F)F)c2)sc1-c1ccc(C(N)=O)nc1 [TP-024n]", "System under test": "U2OS", "Measured value": 13}
{"Compound": "CCCn1c(=O)c2[nH]c(C34CC5CC(CC3C5)C4)nc2n(CCC)c1=O [ROLOFYLLINE]", "System under test": "U2OS", "Measured value": 96}
{"Compound": "CC(=O)c1cc(-c2cc(C(=O)NC3CC3)ccc2C)c2ncccn12", "System under test": "U2OS", "Measured value": 16}
{"Compound": "CCc1cc2c(cc1CC)CC(NC[C@H](O)c1ccc(O)c3[nH]c(=O)ccc13)C2 [INDACATEROL]", "System under test": "U2OS", "Measured value": 73}
{"Compound": "C1=N/C2=N/c3ccc(OCCN4CCCC4)c(c3)COC/C=C\\COCc3cccc(c3)C(=C1)N2", "System under test": "U2OS", "Measured value": 100}

====

tested on: U2OS; assay: Multiplex assay against U2OS; assay type: toxicity, cell-based; details: human, 48 h, 1 µM, compound concentration 1 uM, replicate 2

{"Molecule": "CCn1c(-c2nonc2N)nc2cnc(Oc3cccc(NC(=O)c4ccc(OCCN5CCOCC5)cc4)c3)cc21 [GSK-269962A]", "Unit annotation": "%", "Population Normal (%)": 92}
{"Molecule": "CCC(=O)O[C@]1(C(=O)SCF)[C@H](C)C[C@H]2[C@@H]3C[C@H](F)C4=CC(=O)C=C[C@]4(C)[C@@]3(F)[C@@H](O)C[C@@]21C [FLUTICASONE PROPIONATE]", "Unit annotation": "%", "Population Normal (%)": 91}
{"Molecule": "Cl.Cl.Nc1ncnc2c1c(-c1cccc(OCc3ccccc3)c1)cn2[C@H]1C[C@@H](CN2CCC2)C1", "Unit annotation": "%", "Population Normal (%)": 96}
{"Molecule": "Cc1cc2c(cc1N1C(=O)c3cccc4c(CCCO)ccc(c34)C1=O)n(C)c(=O)n2C", "Unit annotation": "%", "Population Normal (%)": 89}
{"Molecule": "Cc1nc(Cc2cccc(C(F)(F)F)c2)sc1-c1ccc(C(N)=O)nc1 [TP-024n]", "Unit annotation": "%", "Population Normal (%)": 95}
{"Molecule": "CNc1oc(-c2cccc3ccccc23)nc1C#N", "Unit annotation": "%", "Population Normal (%)": 89}
{"Molecule": "CCCn1c(=O)c2[nH]c(C34CC5CC(CC3C5)C4)nc2n(CCC)c1=O", "Unit annotation": "%", "Population Normal (%)": 97}
{"Molecule": "Nc1nc2c(c(N3CCNCC3)n1)CCC1=C2[C@@H]2CCCC[C@@H]2O1", "Unit annotation": "%", "Population Normal (%)": 90}
{"Molecule": "CC(C)N1CCC(C)(C)c2cc(C#Cc3ccc(C(=O)O)cc3)ccc21", "Unit annotation": "%", "Population Normal (%)": 93}
{"Molecule": "COc1ccc(NS(=O)(=O)c2sc3ccc(Cl)cc3c2C)cc1N1CCNCC1.Cl", "Unit annotation": "%", "Population Normal (%)": 96}
{"Molecule": "CC(=O)c1cc(-c2cc(C(=O)NC3CC3)ccc2C)c2ncccn12", "Unit annotation": "%", "Population Normal (%)": 96}
{"Molecule": "O=C(O)c1ccc2cc(-c3ccc(O)c(C45CC6CC(CC(C6)C4)C5)c3)ccc2c1", "Unit annotation": "%", "Population Normal (%)": 97}
{"Molecule": "COc1cc2c(NC3CCN(C(C)C)CC3)nc(N3CCC(F)(F)CC3)nc2cc1OCCCN1CCCC1", "Unit annotation": "%", "Population Normal (%)": 91}
{"Molecule": "Nc1ccc(C(=O)Nc2cccc(-c3nc(N4CCOCC4)c4oc5ncccc5c4n3)c2)cn1", "Unit annotation": "%", "Population Normal (%)": 92}
{"Molecule": "CCc1cc2c(cc1CC)CC(NC[C@H](O)c1ccc(O)c3[nH]c(=O)ccc13)C2", "Unit annotation": "%", "Population Normal (%)": 94}

====

tested on: Fibroblast; test: Multiplex assay against human fibroblast; assay type: toxicity, cell-based; settings: 12 h, 1 µM, compound concentration 1 uM, replicate 1
Listed next: entries and their corresponding Population Mitotic Cells (%).

{"Item smiles": "CCOc1cc(N2CCC(O)CC2)ccc1Nc1ncc2c(n1)N(C1CCCC1)CCC(=O)N2C", "System under test": "Fibroblast", "Unit annotation": "%", "Population Mitotic Cells (%)": 35}
{"Item smiles": "COc1cc2c(Nc3ccc(NC(=O)c4ccccc4)cc3)ncnc2cc1OCCCN1CCOCC1", "System under test": "Fibroblast", "Unit annotation": "%", "Population Mitotic Cells (%)": 44}
{"Item smiles": "COc1cc(N2CCC(N(C)C)CC2)ccc1Nc1ncc(Cl)c(Nc2ccccc2P(C)(C)=O)n1", "System under test": "Fibroblast", "Unit annotation": "%", "Population Mitotic Cells (%)": 35}
{"Item smiles": "CC(C)N1CCC(C)(C)c2cc(C#Cc3ccc(C(=O)O)cc3)ccc21", "System under test": "Fibroblast", "Unit annotation": "%", "Population Mitotic Cells (%)": 10}
{"Item smiles": "CNc1oc(-c2cccc3ccccc23)nc1C#N", "System under test": "Fibroblast", "Unit annotation": "%", "Population Mitotic Cells (%)": 25}

====

Listed next: entries and their corresponding Population Apoptotic (%).
system: HEK-293T; assay: Multiplex assay against HEK293T; assay type: toxicity, cell-based; settings: human, 12 h, 10 µM, compound concentration 10 uM, replicate 1
Value kind: Population Apoptotic (%)

{"Compound": "CNC(=O)c1cc(Oc2ccc(NC(=O)Nc3cc(C(C)(C)C)nn3-c3ccc4ncccc4c3)c(F)c2)ccn1 [REBASTINIB]", "System under test": "HEK-293T", "Unit annotation": "%", "Measured value": 29}
{"Compound": "N#Cc1cnc(Nc2cc(NC[C@H]3CNCCO3)c(C(F)(F)F)cn2)cn1 [SRA-737]", "System under test": "HEK-293T", "Unit annotation": "%", "Measured value": 20}
{"Compound": "CC(=O)c1cc(-c2cc(C(=O)NC3CC3)ccc2C)c2ncccn12", "System under test": "HEK-293T", "Unit annotation": "%", "Measured value": 50}
{"Compound": "CN(C)CCOc1ccc(-c2nc(-c3ccncc3)c(-c3ccc4c(c3)CC/C4=N\\O)[nH]2)cc1 [SB590885]", "System under test": "HEK-293T", "Unit annotation": "%", "Measured value": 28}
{"Compound": "CCOc1cc(N2CCC(O)CC2)ccc1Nc1ncc2c(n1)N(C1CCCC1)CCC(=O)N2C", "System under test": "HEK-293T", "Unit annotation": "%", "Measured value": 14}
{"Compound": "Nc1ccc(C(=O)Nc2cccc(-c3nc(N4CCOCC4)c4oc5ncccc5c4n3)c2)cn1", "System under test": "HEK-293T", "Unit annotation": "%", "Measured value": 83}
{"Compound": "Cc1cc2c(cc1N1C(=O)c3cccc4c(CCCO)ccc(c34)C1=O)n(C)c(=O)n2C", "System under test": "HEK-293T", "Unit annotation": "%", "Measured value": 53}
{"Compound": "CCCn1c(=O)c2[nH]c(C34CC5CC(CC3C5)C4)nc2n(CCC)c1=O [ROLOFYLLINE]", "System under test": "HEK-293T", "Unit annotation": "%", "Measured value": 78}
{"Compound": "Nc1nc2c(c(N3CCNCC3)n1)CCC1=C2[C@@H]2CCCC[C@@H]2O1", "System under test": "HEK-293T", "Unit annotation": "%", "Measured value": 76}
{"Compound": "COc1cc2c(Nc3ccc(NC(=O)c4ccccc4)cc3)ncnc2cc1OCCCN1CCOCC1", "System under test": "HEK-293T", "Unit annotation": "%", "Measured value": 17}
{"Compound": "COc1cc2c(NC3CCN(C(C)C)CC3)nc(N3CCC(F)(F)CC3)nc2cc1OCCCN1CCCC1", "System under test": "HEK-293T", "Unit annotation": "%", "Measured value": 90}
{"Compound": "CCOc1cc2ncc(C#N)c(Nc3ccc(OCc4cccc(F)c4)c(Cl)c3)c2cc1NC(=O)/C=C/CN(C)C [HKI-357]", "System under test": "HEK-293T", "Unit annotation": "%", "Measured value": 31}
{"Compound": "O=C(O)c1ccc2cc(-c3ccc(O)c(C45CC6CC(CC(C6)C4)C5)c3)ccc2c1 [O-DEMETHYLATED ADAPALENE]", "System under test": "HEK-293T", "Unit annotation": "%", "Measured value": 53}
{"Compound": "Cc1nc(Cc2cccc(C(F)(F)F)c2)sc1-c1ccc(C(N)=O)nc1 [TP-024n]", "System under test": "HEK-293T", "Unit annotation": "%", "Measured value": 50}
{"Compound": "CC(C)N1CCC(C)(C)c2cc(C#Cc3ccc(C(=O)O)cc3)ccc21", "System under test": "HEK-293T", "Unit annotation": "%", "Measured value": 52}
{"Compound": "CCC(=O)O[C@]1(C(=O)SCF)[C@H](C)C[C@H]2[C@@H]3C[C@H](F)C4=CC(=O)C=C[C@]4(C)[C@@]3(F)[C@@H](O)C[C@@]21C [FLUTICASONE PROPIONATE]", "System under test": "HEK-293T", "Unit annotation": "%", "Measured value": 68}
{"Compound": "COc1ccc(NS(=O)(=O)c2sc3ccc(Cl)cc3c2C)cc1N1CCNCC1.Cl", "System under test": "HEK-293T", "Unit annotation": "%", "Measured value": 71}
{"Compound": "Cl.Cl.NC1(c2ccc(-c3nc4ccn5c(=O)[nH]nc5c4cc3-c3ccccc3)cc2)CCC1", "System under test": "HEK-293T", "Unit annotation": "%", "Measured value": 31}
{"Compound": "Cc1cn(-c2cc(NC(=O)c3ccc4c(c3)CN(c3cncnc3)C[C@@H]4C)cc(C(F)(F)F)c2)cn1", "System under test": "HEK-293T", "Unit annotation": "%", "Measured value": 17}
{"Compound": "CCc1cc2c(cc1CC)CC(NC[C@H](O)c1ccc(O)c3[nH]c(=O)ccc13)C2 [INDACATEROL]", "System under test": "HEK-293T", "Unit annotation": "%", "Measured value": 93}
{"Compound": "CN(C)C/C=C/C(=O)Nc1cc2c(Nc3ccc(F)c(Cl)c3)ncnc2cc1O[C@H]1CCOC1.O=C(O)/C=C\\C(=O)O.O=C(O)/C=C\\C(=O)O [AFATINIB DIMALEATE]", "System under test": "HEK-293T", "Unit annotation": "%", "Measured value": 23}
{"Compound": "CCn1c(-c2nonc2N)nc2cnc(Oc3cccc(NC(=O)c4ccc(OCCN5CCOCC5)cc4)c3)cc21 [GSK-269962A]", "System under test": "HEK-293T", "Unit annotation": "%", "Measured value": 61}
{"Compound": "CC(C)(C)c1cnc(CSc2cnc(NC(=O)C3CCNCC3)s2)o1 [BMS-387032]", "System under test": "HEK-293T", "Unit annotation": "%", "Measured value": 23}
{"Compound": "c1ccc2oc(-c3csc(C4CCN(Cc5nc6ncccc6[nH]5)CC4)n3)cc2c1", "System under test": "HEK-293T", "Unit annotation": "%", "Measured value": 17}
{"Compound": "CNc1oc(-c2cccc3ccccc23)nc1C#N", "System under test": "HEK-293T", "Unit annotation": "%", "Measured value": 41}
